study-system: cPLA2α (Homo sapiens, UniProt P47712)
Construct: recombinant, isolated from Sf9 insect cells
Sequence (P47712 whole entry): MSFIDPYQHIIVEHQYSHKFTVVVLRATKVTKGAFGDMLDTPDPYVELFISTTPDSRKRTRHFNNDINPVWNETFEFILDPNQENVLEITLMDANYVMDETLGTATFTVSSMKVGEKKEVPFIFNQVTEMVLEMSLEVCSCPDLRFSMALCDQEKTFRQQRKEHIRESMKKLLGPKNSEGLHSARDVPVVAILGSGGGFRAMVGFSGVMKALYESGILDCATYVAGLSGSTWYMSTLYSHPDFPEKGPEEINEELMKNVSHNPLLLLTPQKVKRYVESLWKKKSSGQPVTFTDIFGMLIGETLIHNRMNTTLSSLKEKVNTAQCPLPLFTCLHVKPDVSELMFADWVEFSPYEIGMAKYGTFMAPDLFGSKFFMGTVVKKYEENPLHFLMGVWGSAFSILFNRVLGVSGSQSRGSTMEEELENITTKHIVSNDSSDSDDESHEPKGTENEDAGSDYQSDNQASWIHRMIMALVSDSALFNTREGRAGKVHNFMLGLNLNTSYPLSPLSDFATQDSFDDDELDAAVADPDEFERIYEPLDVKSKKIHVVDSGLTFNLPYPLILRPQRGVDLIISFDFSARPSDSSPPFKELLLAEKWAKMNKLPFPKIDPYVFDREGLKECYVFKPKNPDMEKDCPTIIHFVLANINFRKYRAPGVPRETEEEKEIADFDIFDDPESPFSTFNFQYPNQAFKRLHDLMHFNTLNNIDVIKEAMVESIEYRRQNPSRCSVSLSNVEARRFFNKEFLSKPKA
assay-summary: cPLA2α activity assay with PAPC/POG vesicles, arachidonic acid by LC-MS/MS
quantity-kind: pIC50
Just the number, please; pIC50 means minus log10 of the concentration in mol/L.

// query pIC50 value for entry C[C@@H](C(=O)O)c1ccc(-c2ccccc2)c(F)c1 [R-flurbiprofen]
3.69
